- target.entity: recombinant guanylate cyclase reporter cell line (Rattus norvegicus, UniProt P19686+P20595)
- Construct: expressed in transfected cells
- Sequence (P19686 1-690): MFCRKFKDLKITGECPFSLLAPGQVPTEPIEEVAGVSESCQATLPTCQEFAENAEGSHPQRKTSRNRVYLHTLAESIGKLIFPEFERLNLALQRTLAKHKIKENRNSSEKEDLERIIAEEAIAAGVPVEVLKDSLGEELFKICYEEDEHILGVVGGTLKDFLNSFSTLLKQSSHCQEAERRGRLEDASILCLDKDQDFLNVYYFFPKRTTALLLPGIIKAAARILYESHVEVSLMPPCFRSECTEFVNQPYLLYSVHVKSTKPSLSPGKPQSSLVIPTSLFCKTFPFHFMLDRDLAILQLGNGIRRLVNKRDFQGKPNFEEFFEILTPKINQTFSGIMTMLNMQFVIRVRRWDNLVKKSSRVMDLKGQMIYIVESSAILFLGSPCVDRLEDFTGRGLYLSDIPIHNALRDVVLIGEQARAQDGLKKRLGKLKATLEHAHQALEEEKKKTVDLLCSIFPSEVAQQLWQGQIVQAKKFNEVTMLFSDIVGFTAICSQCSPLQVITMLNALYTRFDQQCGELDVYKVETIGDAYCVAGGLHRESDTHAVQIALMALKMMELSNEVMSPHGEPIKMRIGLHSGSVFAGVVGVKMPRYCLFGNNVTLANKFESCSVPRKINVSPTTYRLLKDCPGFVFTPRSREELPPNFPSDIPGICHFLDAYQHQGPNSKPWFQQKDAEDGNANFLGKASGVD
- Sequence (P20595 1-619): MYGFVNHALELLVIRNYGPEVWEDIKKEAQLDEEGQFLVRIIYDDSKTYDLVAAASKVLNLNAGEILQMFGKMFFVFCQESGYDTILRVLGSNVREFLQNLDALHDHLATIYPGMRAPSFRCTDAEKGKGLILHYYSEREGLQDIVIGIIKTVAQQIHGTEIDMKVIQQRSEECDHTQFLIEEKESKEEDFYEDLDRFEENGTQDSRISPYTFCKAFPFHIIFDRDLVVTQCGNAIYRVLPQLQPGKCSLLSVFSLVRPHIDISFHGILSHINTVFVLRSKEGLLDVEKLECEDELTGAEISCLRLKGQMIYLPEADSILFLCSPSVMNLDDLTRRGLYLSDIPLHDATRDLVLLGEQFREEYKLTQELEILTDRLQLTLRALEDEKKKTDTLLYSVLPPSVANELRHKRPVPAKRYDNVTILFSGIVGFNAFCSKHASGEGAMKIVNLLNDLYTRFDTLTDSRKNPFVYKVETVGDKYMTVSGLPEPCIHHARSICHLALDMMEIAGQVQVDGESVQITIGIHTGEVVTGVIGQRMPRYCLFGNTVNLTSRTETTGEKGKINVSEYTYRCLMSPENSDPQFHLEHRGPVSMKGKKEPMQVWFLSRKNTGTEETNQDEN
- assay.explanation: Effect on a recombinant guanylate cyclase reporter cell line
- Assay type: cell-based
- test.parameters: MEC = minimum effective concentration; in some cases mean values for individual determinations
value.kind: MEC (µM)

Worked cases, answers included:
{"compound": "Cc1nc2c(OCc3c(F)cccc3F)cccn2c1C(=O)Nc1cccc2ccc(O)cc12 [Example 74]", "MEC [µM]": 1.0}
{"compound": "Cc1nc2c(OCc3c(F)cccc3F)cccn2c1C(=O)Nc1ccccc1F [Example 10]", "MEC [µM]": 0.3}
{"compound": "Cc1n[nH]c(C)c1NC(=O)c1c(C)nc2c(OCc3c(F)cccc3F)cc(N3CCOCC3)cn12 [Example 51]", "MEC [µM]": 1.0}
{"compound": "CCn1nc(C)c(NC(=O)c2c(C)nc3c(OCCC(C(F)(F)F)C(F)(F)F)cc(C)cn23)c1C [Example 147]", "MEC [µM]": 3.0}
{"compound": "CCn1nc(C)c(NC(=O)c2c(C)nc3c(OCc4c(F)cccc4F)cccn23)c1C [Example 38]", "MEC [µM]": 1.0}
{"compound": "Cc1nc2c(OCc3c(F)cccc3F)cccn2c1C(=O)Nc1cnn2ccccc12 [Example 1]", "MEC [µM]": 0.1}
{"compound": "Cc1nc2c(OCc3c(F)cccc3F)cccn2c1C(=O)Nc1cnn(CCN(C)C)c1 [Example 134]", "MEC [µM]": 3.0}
{"compound": "Cc1nc2c(OCC3CCCCC3)cccn2c1C(=O)Nc1cnn(CCO)c1 [Example 124]", "MEC [µM]": 1.0}
{"compound": "Cc1ccc2cccnc2c1NC(=O)c1c(C)nc2c(OCc3c(F)cccc3F)cccn12 [Example 65]", "MEC [µM]": 1.0}
{"compound": "COc1cccc(NC(=O)c2c(C)nc3c(OCc4c(F)cccc4F)cccn23)c1 [Example 13]", "MEC [µM]": 0.3}

[P] COCCn1cc(NC(=O)c2c(C)nc3c(OCc4c(F)cccc4F)cccn23)cn1 [Example 26]
[Q] Cc1nn(CCO)c(C)c1NC(=O)c1c(C)nc2c(OCc3c(F)cccc3F)cccn12 [Example 37]
# return whichever of P and Q has the smaller MEC Respond using the label that marks the chosen record.
Q

[P] Cc1nc2c(OCc3c(F)cccc3F)cccn2c1C(=O)Nc1nnc(CCOC(C)C)s1 [Example 83]
[Q] Cc1nc2c(OCC3CCCCC3)cccn2c1C(=O)Nc1cccc(CCC(=O)O)c1 [Example 150]
Parameter metric = MEC. Return the lower-valued option from P and Q . Your answer should be the label of the entry you select.
Q

[I] Cc1n[nH]c(C(F)(F)F)c1NC(=O)c1c(C)nc2c(OCc3c(F)cccc3F)cc(Cl)cn12 [Example 40]
[II] Cc1nc2c(OCc3c(F)cccc3F)cccn2c1C(=O)Nc1cnn(CCN2CCS(=O)(=O)CC2)c1 [Example 129]
[III] Cc1nc2c(OCc3c(F)cccc3F)cccn2c1C(=O)Nc1cccc(N2CCN(C)CC2)c1 [Example 99]
[IV] Cc1nc2c(OCc3c(F)cccc3F)cccn2c1C(=O)Nc1cn[nH]c1 [Example 31]
[V] Cc1cc(OCc2c(F)cccc2F)c2nc(C)c(C(=O)Nc3c(C)nn(CCO)c3C)n2c1 [Example 87]
Put the compounds in ascending order of MEC. # answer = labels listed in requested order
I, V, IV, III, II
(I: 0.03 µM, V: 0.3 µM, IV: 1.0 µM, III: 3.0 µM, II: 10 µM)
